Origin of the recorded values: the supplement of paper PMC5998384

Please respond with reported thermal stability score for every item in the list.
System: HeLa Kyoto;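 further: synchronized HeLa Kyoto cells, proteins quantified by TMT10plex mass spectrometry, three biological replicates, mitosis taken 0.5 h after nocodazole release, G1/S directly after double thymidine block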
TEST_NAME: thermal stability score vs G1/S (z-score of summed log2 fold changes over temperatures); higher = more thermally stable than in G1/S
PARTICULARS: cell cycle stage: early G1 (4.5 h after nocodazole release)
No unit in the answer, only the number.

Which measured thermal stability score value corresponds to MAAPAPGLISVFSSSQELGAALAQLVAQRAACCLAGARARFALGLSGGSLVSMLARELPAAVAPAGPASLARWTLGFCDERLVPFDHAESTYGLYRTHLLSRLPIPESQVITINPELPVEEAAEDYAKKLRQAFQGDSIPVFDLLILGVGPDGHTCSLFPDHPLLQEREKIVAPISDSPKPPPQRVTLTLPVLNAARTVIFVATGEGKAAVLKRILEDQEENPLPAALVQPHTGKLCWFLDEAAARLLTVPFEKHSTL [PGLS] ?
-2.51

Which measured thermal stability score value corresponds to MQTPVNIPVPVLRLPRGPDGFSRGFAPDGRRAPLRPEVPEIQECPIAQESLESQEQRARAALRERYLRSLLAMVGHQVSFTLHEGVRVAAHFGATDLDVANFYVSQLQTPIGVQAEALLRCSDIISYTFKP [GEMIN7] ?
-0.755

Which measured thermal stability score value corresponds to MKLIILEHYSQASEWAAKYIRNRIIQFNPGPEKYFTLGLPTGSTPLGCYKKLIEYYKNGDLSFKYVKTFNMDEYVGLPRDHPESYHSFMWNNFFKHIDIHPENTHILDGNAVDLQAECDAFEEKIKAAGGIELFVGGIGPDGHIAFNEPGSSLVSRTRVKTLAMDTILANARFFDGELTKVPTMALTVGVGTVMDAREVMILITGAHKAFALYKAIEEGVNHMWTVSAFQQHPRTVFVCDEDATLELKVKTVKYFKGLMLVHNKLVDPLYSIKEKETEKSQSSKKPYSD [GNPDA1] ?
-0.841

Which measured thermal stability score value corresponds to MGKGDPNKPRGKMSSYAFFVQTCREEHKKKHPDSSVNFAEFSKKCSERWKTMSAKEKSKFEDMAKSDKARYDREMKNYVPPKGDKKGKKKDPNAPKRPPSAFFLFCSEHRPKIKSEHPGLSIGDTAKKLGEMWSEQSAKDKQPYEQKAAKLKEKYEKDIAAYRAKGKSEAGKKGPGRPTGSKKKNEPEDEEEEEEEEDEDEEEEDEDEE [HMGB2] ?
0.292

Which measured thermal stability score value corresponds to MDIRPNHTIYINNMNDKIKKEELKRSLYALFSQFGHVVDIVALKTMKMRGQAFVIFKELGSSTNALRQLQGFPFYGKPMRIQYAKTDSDIISKMRGTFADKEKKKEKKKAKTVEQTATTTNKKPGQGTPNSANTQGNSTPNPQVPDYPPNYILFLNNLPEETNEMMLSMLFNQFPGFKEVRLVPGRHDIAFVEFENDGQAGAARDALQGFKITPSHAMKITYAKK [SNRPB2] ?
-2.85

Which measured thermal stability score value corresponds to MAQRMTTQLLLLLVWVAVVGEAQTRIAWARTELLNVCMNAKHHKEKPGPEDKLHEQCRPWRKNACCSTNTSQEAHKDVSYLYRFNWNHCGEMAPACKRHFIQDTCLYECSPNLGPWIQQVDQSWRKERVLNVPLCKEDCEQWWEDCRTSYTCKSNWHKGWNWTSGFNKCAVGAACQPFHFYFPTPTVLCNEIWTHSYKVSNYSRGSGRCIQMWFDPAQGNPNEEVARFYAAAMSGAGPWAAWPFLLSLALMLLWLLS [FOLR1] ?
-1.06
